Reference source: patent US20220389013A1

- ASSAY NAME: Caco-2 cell transmembrane transport experiment
- RUN CONDITIONS: human, Caco-2, pH 7.4, Papp A-B Sample_02, 10 μM, pH 7.4, 37° C., 90 min, apical to basolateral
MEASURED ENDPOINT: Papp A→B at 90 min, 10 μM (×10⁻⁶ cm/s)

>>> obs_value("C=CC(=O)N1C[C@H](C)N(c2nc(=O)n(-c3c(C)ccnc3C(C)C)c3nc(-c4c(F)c(F)cc5ccoc45)c(Cl)cc23)C[C@H]1C (single isomer, unassigned)")
10.4
>>> obs_value("C=CC(=O)N1CCN(c2nc(=O)n(-c3c(C)ccnc3C(C)C)c3nc(-c4c(F)ccc5ccoc45)c(Cl)cc23)[C@@H](C)C1 (single isomer, unassigned)")
20.8
>>> obs_value("C=CC(=O)N1CCN(c2nc(=O)n(-c3c(C)ccnc3C(C)C)c3nc(-c4c(O)cccc4F)c(F)cc23)[C@@H](C)C1 (atropisomer, axis not shown) [AMG510, reference compound]")
4.94
>>> obs_value("C=CC(=O)N1CCN(c2nc(=O)n(-c3c(C)ccnc3C(C)C)c3nc(-c4c(F)ccc5ccoc45)c(F)cc23)[C@@H](C)C1 (single isomer, unassigned)")
18.8
>>> obs_value("C=CC(=O)N1C[C@H](C)N(c2nc(=O)n(-c3c(C)ccnc3C(C)C)c3nc(-c4c(F)ccc5ccoc45)c(Cl)cc23)C[C@H]1C (single isomer, unassigned)")
20.4
>>> obs_value("C=CC(=O)N1CCN(c2nc(=O)n(-c3c(C)ccnc3C(C)C)c3nc(-c4c(F)c(F)cc5ccoc45)c(Cl)cc23)[C@@H](C)C1 (single isomer, unassigned)")
10.7

---

- ASSAY NAME: Pharmacokinetic (PK) experiment in rats by gavage
- Type: in vivo
- RUN CONDITIONS: rat, plasma, po, male SD rats, 20 mg/kg
Readings of half-life for the listed compounds
MEASURED ENDPOINT: half-life (h)

>>> obs_value("C=CC(=O)N1CCN(c2nc(=O)n(-c3c(C)ccnc3C(C)C)c3nc(-c4c(F)c(F)cc5ccoc45)c(Cl)cc23)[C@@H](C)C1 [Compound 103]")
3.77
>>> obs_value("C=CC(=O)N1C[C@H](C)N(c2nc(=O)n(-c3c(C)ccnc3C(C)C)c3nc(-c4c(F)ccc5ccoc45)c(F)cc23)C[C@H]1C (single isomer, unassigned) [Compound 89-1]")
3.1
>>> obs_value("C=CC(=O)N1C[C@H](C)N(c2nc(=O)n(-c3c(C)ccnc3C(C)C)c3nc(-c4c(F)c(F)cc5ccoc45)c(Cl)cc23)C[C@H]1C [Compound 104]")
2.46

---

The following molecules are shown together with reported IC50 values.
- Tested on: H358 (KRAS G12C)
- ASSAY NAME: Tumor cell proliferation inhibition assay (CellTiter-Glo), H358
- Type: cell-based, Human
- RUN CONDITIONS: Homo sapiens, NCI-H358, 72 h, 10% fetal bovine serum
MEASURED ENDPOINT: IC50

>>> obs_value("C=CC(=O)N1CCN(c2nc(=O)n(-c3c(C)ccnc3C(C)C)c3nc(-c4c(F)ccc5ncsc45)c(F)cc23)[C@@H](C)C1 [Compound 78]")
"100 to 500 nM"
>>> obs_value("C/C=C/C(=O)N1CCN(c2nc(=O)n(-c3c(C)ccnc3C(C)C)c3nc(-c4cc5ccoc5cc4F)c(F)cc23)[C@@H](C)C1 [Compound 113]")
"> 500 nM"
>>> obs_value("C=CC(=O)N1CCN(c2nc(=O)n(-c3c(C)ccnc3C(C)C)c3nc(-c4c(F)c(O)cc5ccoc45)c(Cl)cc23)[C@@H](C)C1 [Compound 110]")
"10 to 50 nM"
>>> obs_value("C=CC(=O)N1CCN(c2nc(=O)n(-c3ccccc3C(C)C)c3nc(-c4c(F)ccc5ccoc45)c(F)cc23)[C@@H](C)C1 [Compound 120]")
"11 nM"
>>> obs_value("C=CC(=O)N1CCN(c2nc(=O)n(-c3c(C)ccnc3C(C)C)c3nc(-c4c(OC)ccc5ccoc45)c(F)cc23)[C@@H](C)C1 [Compound 109]")
"50 to 100 nM"
>>> obs_value("C=CC(=O)N1CCN(c2nc(=O)n(-c3c(C)ccnc3C(C)C)c3nc(-c4c(F)ccc5ccoc45)c(Cl)cc23)C[C@@H]1CC#N (atropisomer, axis not shown; (M)) [Compound 101-1]")
"10 to 50 nM"
>>> obs_value("C=CC(=O)N1CCN(c2nc(=O)n(-c3c(C)nc(C)nc3C(C)C)c3nc(-c4c(F)ccc5ccoc45)c(F)cc23)[C@@H](C)C1 [Compound 117]")
"50 to 100 nM"
>>> obs_value("C=CC(=O)N1CCN(c2nc(=O)n(-c3c(C)ccnc3C(C)C)c3nc(-c4c(F)ccc5c4OCO5)c(F)cc23)[C@@H](C)C1 [Compound 69]")
"10 to 50 nM"
>>> obs_value("Cc1ccnc(C(C)C)c1-n1c(=O)nc(N2CCN(C(=O)/C=C/CN(C)C)C[C@@H]2C)c2cc(F)c(-c3cc4ccoc4cc3F)nc21 [Compound 114]")
"> 500 nM"
>>> obs_value("C=CC(=O)N1CCN(c2nc(=O)n(-c3c(C#N)cccc3C(C)C)c3nc(-c4c(F)ccc5ccoc45)c(F)cc23)[C@@H](C)C1 [Compound 123]")
"10 to 50 nM"
>>> obs_value("C=CC(=O)N1CCN(c2nc(=O)n(-c3c(C)cccc3C(C)C)c3nc(-c4c(F)ccc5ccoc45)c(F)cc23)[C@@H](C)C1 [Compound 106]")
"100 to 500 nM"
>>> obs_value("C=CC(=O)N1CCN(c2nc(=O)n(-c3c(C)ccnc3C(C)C)c3nc(-c4c(C)ccc5ccoc45)c(F)cc23)[C@@H](C)C1 [Compound 108]")
"10 to 50 nM"
